B1: tRNA (parent)
chain: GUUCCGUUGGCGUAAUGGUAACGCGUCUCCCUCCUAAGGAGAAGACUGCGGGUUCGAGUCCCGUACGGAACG

- Variants of: B1
- TEST_SUMMARY: yeast fitness, log relative to wild type (ln ratio); higher = fitter; tRNA-Arg(CCU), competitive growth, 37 C, 1 M NaCl
Quick rule: yeast fitness (ln) of at least -0.3 means fulfilled, below that means not fulfilled.

SEQUENCE_CHANGE	CLASS_NAME
U2G G6A C27U C46U C66U A69G A70U	fulfilled
G1A U2G G6U A43C C46U C66A A69G A70U C71U	not fulfilled
G1A U2C C27U C46U C66U	fulfilled

Exam item: decide whether the reported yeast fitness (ln) for U2G C27U C46U C66A A70U is at least -0.3.
fulfilled

Exam item: decide whether the reported yeast fitness (ln) for U2G G6A A43C C66A A70G C71U is at least -0.3.
fulfilled

Exam item: decide whether the reported yeast fitness (ln) for G1A U2G G6U C27U A43C C46U A69G C71U is at least -0.3.
not fulfilled

Exam item: decide whether the reported yeast fitness (ln) for G1A G6A A70U is at least -0.3.
fulfilled

Exam item: decide whether the reported yeast fitness (ln) for G1A U2G G6A A43C C46U is at least -0.3.
fulfilled
